Values were extracted from PubChem BioAssay (EPA / NIEHS).

# ASSAY_PROCEDURE: TOX21_p53_BLA_p3_viability: Viability Assessment in the Tox21 HCT-116 p53 Agonism Beta-lactamase Assay, Phase 3 (AID 2283593);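 note: cells exposed to compound for 16 h before reading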
Results filed as inconclusive are left out. The source made the active and inactive calls. Rule for the calls: active = hit-call score of the fitted dose curve at least 0.9, where 1 is the maximum; inconclusive = response in the unintended direction; inactive = score below 0.9.
Labels: y for active, n for inactive

>  <COMPOUND>
CC(C)C(=O)OCC(=O)[C@@]12O[C@H](C3CCCCC3)O[C@@H]1C[C@H]1[C@@H]3CCC4=CC(=O)C=C[C@]4(C)[C@H]3[C@@H](O)C[C@@]12C

>  <ASSIGNED_LABEL>
n

$$$$
>  <COMPOUND>
Nc1ccc2cc(S(=O)(=O)O)cc(O)c2c1

>  <ASSIGNED_LABEL>
n

$$$$
>  <COMPOUND>
CCC(C)[C@H]1O[C@]2(C=C[C@@H]1C)C[C@@H]1C[C@@H](C/C=C(\C)[C@@H](O[C@H]3C[C@H](OC)[C@@H](O[C@H]4C[C@H](OC)[C@H](NC(C)=O)[C@H](C)O4)[C@H](C)O3)[C@@H](C)/C=C/C=C3\CO[C@@H]4[C@H](O)C(C)=C[C@@H](C(=O)O1)[C@]34O)O2 (some centres undefined)

>  <ASSIGNED_LABEL>
y

$$$$
>  <COMPOUND>
CN1[C@@H]2CC[C@H]1CC(OC(=O)C(O)c1ccccc1)C2 (some centres undefined)

>  <ASSIGNED_LABEL>
n

$$$$
>  <COMPOUND>
CC(C)OCC1CO1 (centres undefined)

>  <ASSIGNED_LABEL>
n

$$$$
>  <COMPOUND>
c1ccc(CSCc2ccccc2)cc1

>  <ASSIGNED_LABEL>
n

$$$$
>  <COMPOUND>
CCN1CCOCC1

>  <ASSIGNED_LABEL>
n

$$$$
>  <COMPOUND>
CCn1nc(C(=O)O)c(=O)c2cc3c(cc21)OCO3

>  <ASSIGNED_LABEL>
n

$$$$
>  <COMPOUND>
Nc1ccccc1S(=O)(=O)c1ccccc1

>  <ASSIGNED_LABEL>
n

$$$$
>  <COMPOUND>
Cc1c(N)nc(C(CC(N)=O)NCC(N)C(N)=O)nc1C(=O)NC(C(=O)NC(C)C(O)C(C)C(=O)NC(C(=O)NCCc1nc(-c2nc(C(=O)NCCCN[C@@H](C)c3ccccc3)cs2)cs1)C(C)O)C(O[C@@H]1O[C@@H](CO)[C@@H](O)[C@H](O)[C@@H]1O[C@H]1O[C@H](CO)[C@@H](O)[C@H](OC(N)=O)[C@@H]1O)c1cnc[nH]1 (some centres undefined)

>  <ASSIGNED_LABEL>
n

$$$$
>  <COMPOUND>
O=C(O)c1cc(-c2ccccc2)nc2ccccc12

>  <ASSIGNED_LABEL>
n

$$$$
>  <COMPOUND>
C=CC(OCC)OCC

>  <ASSIGNED_LABEL>
n

$$$$
>  <COMPOUND>
Cc1cc(CC(C)CC(C)(C)C)n(O)c(=O)c1 (centres undefined) (tested in a mixture with another compound)

>  <ASSIGNED_LABEL>
y

$$$$
>  <COMPOUND>
CC(C)=CCCC(C)=CC=NO

>  <ASSIGNED_LABEL>
n

$$$$
>  <COMPOUND>
CC1(C)C(O)C(C)(C)C1O (centres undefined)

>  <ASSIGNED_LABEL>
n

$$$$
>  <COMPOUND>
O=C(O)c1ccccc1[N+](=O)[O-]

>  <ASSIGNED_LABEL>
n

$$$$
>  <COMPOUND>
CC(C)[C@@H]1CC[C@@H](C)C[C@H]1OC(=O)c1ccccc1O

>  <ASSIGNED_LABEL>
y

$$$$
>  <COMPOUND>
Cc1cc(-c2ccc(N=Nc3cc(S(=O)(=O)O)c4ccccc4c3N)c(C)c2)ccc1N=Nc1cc(S(=O)(=O)O)c2ccccc2c1N

>  <ASSIGNED_LABEL>
n

$$$$
>  <COMPOUND>
CCCC(=O)OC[C@@H](OC(=O)CCC)[C@@H](OC(=O)CCC)[C@H](Cn1c2nc(=O)[nH]c(=O)c-2nc2cc(C)c(C)cc21)OC(=O)CCC

>  <ASSIGNED_LABEL>
n

$$$$

====

# ASSAY_PROCEDURE: TOX21_p53_BLA_p2_viability: Viability Assessment in the Tox21 HCT-116 p53 Agonism Beta-lactamase Assay, Phase 2 (AID 2283591);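 note: compound exposure lasted 16 h at 37 °C; actives lower the ATP signal meaning cytotoxicity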
Records with an inconclusive call do not appear. Calls of active or inactive are those of the source. How the source made its calls: active means hit-call score of the fitted dose curve at least 0.9, where 1 is the maximum; inconclusive means response in the unintended direction; inactive means score below 0.9.
Labels: active, inactive

>  <COMPOUND>
NCC(O)CC(=O)O (configuration not stated)

>  <ASSIGNED_LABEL>
inactive

$$$$
>  <COMPOUND>
CC1(O)CSC(C)(O)CS1 (configuration not stated)

>  <ASSIGNED_LABEL>
inactive

$$$$
>  <COMPOUND>
C=CC(OCC)OCC

>  <ASSIGNED_LABEL>
inactive

$$$$
>  <COMPOUND>
Cc1cc(O)c2c(c1)O[C@@]1(C)CC[C@H]3C(C)(C)CCCC34CO[C@@H]2[C@H]41 (some centres not stated)

>  <ASSIGNED_LABEL>
active

$$$$
>  <COMPOUND>
Cc1nnc(NS(=O)(=O)c2ccc(N)cc2)s1

>  <ASSIGNED_LABEL>
inactive

$$$$
>  <COMPOUND>
CC(C)(S)C(=O)N[C@@H](CS)C(=O)O

>  <ASSIGNED_LABEL>
inactive

$$$$
>  <COMPOUND>
c1ccc(CC2=NCCN2)cc1

>  <ASSIGNED_LABEL>
inactive

$$$$
>  <COMPOUND>
CN1C(CCl)Nc2cc(Cl)c(S(N)(=O)=O)cc2S1(=O)=O (configuration not stated)

>  <ASSIGNED_LABEL>
inactive

$$$$
>  <COMPOUND>
CCCOc1ccc(C(=O)OCCN(CC)CC)cc1N

>  <ASSIGNED_LABEL>
inactive

$$$$
>  <COMPOUND>
Cc1ccccc1CNc1ncnc2c1ncn2[C@@H]1O[C@H](CO)[C@@H](O)[C@H]1O

>  <ASSIGNED_LABEL>
inactive

$$$$
>  <COMPOUND>
CC(=O)N[C@@H]([C@@H](O)[C@H](O)[C@H](O)CO)[C@@H](O)CC(=O)C(=O)O

>  <ASSIGNED_LABEL>
inactive

$$$$
>  <COMPOUND>
CSc1ccc2c(c1)C(N1CCN(C)CC1)Cc1ccccc1S2 (configuration not stated)

>  <ASSIGNED_LABEL>
active

$$$$
>  <COMPOUND>
N[C@@H](CSSC[C@H](N)C(=O)O)C(=O)O

>  <ASSIGNED_LABEL>
inactive

$$$$
>  <COMPOUND>
COc1cc2c(Nc3ccc(Br)cc3F)ncnc2cc1OCC1CCN(C)CC1

>  <ASSIGNED_LABEL>
inactive

$$$$
>  <COMPOUND>
CC(C)C(=O)OCC(=O)[C@@]12O[C@H](C3CCCCC3)O[C@@H]1C[C@H]1[C@@H]3CCC4=CC(=O)C=C[C@]4(C)[C@H]3[C@@H](O)C[C@@]12C

>  <ASSIGNED_LABEL>
inactive

$$$$
>  <COMPOUND>
OC(CCN1CCCCC1)(c1ccccc1)C1CC2C=CC1C2 (configuration not stated)

>  <ASSIGNED_LABEL>
inactive

$$$$
>  <COMPOUND>
NC(=O)C1c2ccccc2CCc2ccccc21

>  <ASSIGNED_LABEL>
inactive

$$$$
>  <COMPOUND>
COc1ccccc1/C=C/C=O

>  <ASSIGNED_LABEL>
inactive

$$$$
>  <COMPOUND>
O=C(O)C(=O)Nc1cccc(-c2nn[nH]n2)c1

>  <ASSIGNED_LABEL>
inactive

$$$$
>  <COMPOUND>
Nc1ccc(S(=O)(=O)Nc2ccccn2)cc1

>  <ASSIGNED_LABEL>
inactive

$$$$
>  <COMPOUND>
O=c1cc[nH]c(=O)[nH]1

>  <ASSIGNED_LABEL>
inactive

$$$$
>  <COMPOUND>
CC(NNC(=O)c1ccccc1)c1ccccc1 (configuration not stated)

>  <ASSIGNED_LABEL>
inactive

$$$$
>  <COMPOUND>
Oc1ccc2c(c1)OCO2

>  <ASSIGNED_LABEL>
inactive

$$$$
>  <COMPOUND>
C=C[C@]1(C)C[C@@H](OC(=O)CSCCN(CC)CC)[C@]2(C)[C@H](C)CC[C@]3(CCC(=O)[C@H]32)[C@@H](C)[C@@H]1O

>  <ASSIGNED_LABEL>
inactive

$$$$
>  <COMPOUND>
C[C@H]1C[C@H]2[C@@H]3CCC4=CC(=O)C=C[C@]4(C)[C@@]3(Cl)[C@@H](O)C[C@]2(C)[C@@]1(O)C(=O)CO

>  <ASSIGNED_LABEL>
inactive

$$$$
>  <COMPOUND>
NS(=O)(=O)c1cc(C2(O)NC(=O)c3ccccc32)ccc1Cl (configuration not stated)

>  <ASSIGNED_LABEL>
inactive

$$$$
>  <COMPOUND>
CCOC(=O)c1cc(-c2ccccc2)nc2ccc(C)cc12

>  <ASSIGNED_LABEL>
inactive

$$$$
